Test system: YFV strain 17D (Stamaril) on Huh-7 cells
Assay: microbe, parasite or virus in culture
Assay type: cell-based, yellow fever virus
Conditions: Yellow fever virus, Huh-7
Please provide measured EC50 for the entries that follow.

# example entries with known answers
>>> print(df.to_string())
                                   compound  endpointvalue
0  Clc1ccccc1Cn1c(-c2cc3cc(Cc4ccc5oc(-c6nc7ccccc7n6Cc6ccccc6Cl)cc5c4)ccc3o2)nc2ccccc21 [3g]       > 137 µM
1  Cc1ccc(N2C(=O)CN(C)C2c2cc3cc(Cc4ccc5oc(C6N(C)CC(=O)N6c6ccc(C)cc6)cc5c4)ccc3o2)cc1 (centres unmarked) [2b]       > 160 µM
2  CCOC(=O)c1cc2cc(Cc3ccc4oc(C(=O)OCC)cc4c3)ccc2o1 [compound 10]       > 255 µM
3  Clc1ccc(Cn2c(-c3cc4cc(Cc5ccc6oc(-c7nc8ccccc8n7Cc7ccc(Cl)cc7)cc6c5)ccc4o3)nc3ccccc32)cc1 [3h]       > 103 µM
4  COc1cccc(Cn2c(-c3cc4cc(Cc5ccc6oc(-c7nc8ccccc8n7Cc7cccc(OC)c7)cc6c5)ccc4o3)nc3ccccc32)c1 [3c]       > 139 µM

Hello, I would appreciate it if you could give EC50 for each entry below.
1. O=C(O)c1cc2cc(Cc3ccc4oc(C(=O)O)cc4c3)ccc2o1 [compound 11]
2. Brc1cccc(Cn2c(-c3cc4cc(Cc5ccc6oc(-c7nc8ccccc8n7Cc7cccc(Br)c7)cc6c5)ccc4o3)nc3ccccc32)c1 [3i]

["> 297 µM", "91.6 µM"]

----------
Please provide measured EC50 for the entries that follow.
System: YFV strain 17D (Stamaril) on Huh-7 cells
Test: microbe, parasite or virus in culture
Assay type: cell-based, yellow fever virus
Conditions: Yellow fever virus, Huh-7

# example entries with known answers
>>> print(df.to_string())
                                   molecule                            targetorsystem  measuredproperty  endpointvalue
0  Cc1cccc(N2C(=O)CN(C)C2c2cc3cc(Cc4ccc5oc(C6N(C)CC(=O)N6c6cccc(C)c6C)cc5c4)ccc3o2)c1C (stereo not shown) [2c]  YFV strain 17D (Stamaril) on Huh-7 cells              EC50        6.75 µM
1  c1ccc(Cn2c(-c3cc4cc(Cc5ccc6oc(-c7nc8ccccc8n7Cc7ccccc7)cc6c5)ccc4o3)nc3ccccc32)cc1 [3a]  YFV strain 17D (Stamaril) on Huh-7 cells              EC50       > 114 µM

Hello, I would appreciate it if you could give EC50 for each entry below.
1. Fc1ccccc1Cn1c(-c2cc3cc(Cc4ccc5oc(-c6nc7ccccc7n6Cc6ccccc6F)cc5c4)ccc3o2)nc2ccccc21 [3e]
2. CN1CC(=O)N(c2ccc(Br)cc2)C1c1cc2cc(Cc3ccc4oc(C5N(C)CC(=O)N5c5ccc(Br)cc5)cc4c3)ccc2o1 (stereo not shown) [2j]
3. CN1CC(=O)N(c2cccc(C(F)(F)F)c2)C1c1cc2cc(Cc3ccc4oc(C5N(C)CC(=O)N5c5cccc(C(F)(F)F)c5)cc4c3)ccc2o1 (stereo not shown) [2k]
4. CN1CC(=O)N(c2ccc(F)cc2)C1c1cc2cc(Cc3ccc4oc(C5N(C)CC(=O)N5c5ccc(F)cc5)cc4c3)ccc2o1 (stereo not shown) [2h]

1. > 21.5 µM
2. > 133 µM
3. 8.89 µM
4. 23.5 µM

Which EC50 is listed for Cc1ccc(C)c(N2C(=O)CN(C)C2c2cc3cc(Cc4ccc5oc(C6N(C)CC(=O)N6c6cc(C)ccc6C)cc5c4)ccc3o2)c1 (stereo not shown) [2d] ? 7.7 µM
